Listed molecules paired with reported TD50 at 0.5 h
test: Neurotoxicity in ip dosed Kunming mouse assessed as minimal motor impairment after 0.5 hrs by rotarod test; type: toxicity, organism-based; settings: in vivo
Please state the figure in mg/kg; there is no need to write the unit.

CCC(CO)N1C(=O)NC2(CC2c2ccc3cccc(OCc4ccccc4)c3n2)C1=O (racemic)    365

Moving on to another molecule below.
TD50 at 0.5 h measured on COc1ccc(N2C(=O)NC3(CC3c3ccc4cccc(OCc5ccccc5)c4n3)C2=O)cc1 (racemic) = 433

* * *

tested on: Mus musculus; test: Anticonvulsant activity in ip dosed Kunming mouse assessed as protection against maximal electroshock-induced seizure after 0.5 hrs; format: functional; details: read-out: MED
Each item that follows carries a reported minimal effective dose.
API: value field is a number in mg/kg; no unit string.

CCC(CO)N1C(=O)NC2(CC2c2ccc3cccc(OCc4ccccc4)c3n2)C1=O (racemic)    30
O=C1NC2(CC2c2ccc3cccc(OCc4ccccc4)c3n2)C(=O)N1c1ccc(Cl)cc1 (racemic)    300

Continue with the compound presented below.
Measured minimal effective dose of CN1C(=O)NC2(CC2c2ccc3cccc(OCc4ccccc4)c3n2)C1=O (racemic) : 100
